tested.on: α‐glucosidase
assay.comment: α-Glucosidase inhibitory assay (p-nitrophenyl-α-D-glucopyranoside, microplate reader)
measurement.context: mean ± SEM, three independent experiments in triplicate
parameter: IC50

These solved cases illustrate the format of a correct answer.
[
  {
    "compound": "CC1CC=C(C(C)(C)OOC23CC(C)CC=C2C(C)(C)OO3)C(=O)C1 (centres unmarked)",
    "IC50": "> 200 µM"
  },
  {
    "compound": "C=C(C)[C@@H]1CC[C@]2(CO)CC[C@]3(C)[C@H](CC[C@@H]4[C@@]5(C)CC[C@H](O)C(C)(C)[C@@H]5CC[C@]43C)[C@@H]12",
    "IC50": "> 200 µM"
  },
  {
    "compound": "C[C@@H]1[C@H](O)C[C@]2(C(=O)O)CC[C@]3(C)C(=CCC4[C@@]5(C)CC[C@H](O)C(C)(C)C5CC[C@]43C)C2[C@H]1C (stereo partly drawn) [Compound 6, 21α‐hydroxyursolic acid]",
    "IC50": "> 200 µM"
  }
]

Reading of IC50 for CC1(C)CC[C@]2(C(=O)O)CC[C@]3(C)C(=CC(=O)C4[C@@]5(C)CC[C@H](O)C(C)(C)C5CC[C@]43C)C2C1 (some centres unmarked) with α‐glucosidase: > 200 µM

Reading of IC50 for C[C@@H]1CC[C@]2(C(=O)O)CC[C@]3(C)C(=CC(=O)C4[C@@]5(C)CC[C@H](O)C(C)(C)C5CC[C@]43C)C2[C@H]1C (some centres unmarked) with α‐glucosidase: 163 µM

Reference for the values: paper PMC12129716
